# ASSAYED_TARGET: rat TAAR1 (Rattus norvegicus (Rat), UniProt Q923Y9)
# Sequence (Q923Y9 whole entry): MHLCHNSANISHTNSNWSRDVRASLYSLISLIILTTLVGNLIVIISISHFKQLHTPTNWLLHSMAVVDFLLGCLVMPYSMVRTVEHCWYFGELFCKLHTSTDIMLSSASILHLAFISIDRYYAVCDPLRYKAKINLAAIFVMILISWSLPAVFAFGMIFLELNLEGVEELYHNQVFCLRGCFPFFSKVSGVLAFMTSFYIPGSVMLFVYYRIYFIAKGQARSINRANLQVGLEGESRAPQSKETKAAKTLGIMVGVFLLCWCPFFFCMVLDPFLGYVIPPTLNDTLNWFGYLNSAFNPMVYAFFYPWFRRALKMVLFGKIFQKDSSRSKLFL
# ASSAY_REMARKS: Radioligand binding assay on rat TAAR1
# STATED_CONDITIONS: read-out: Ki(μM) rat; rat TAAR1, HEK-293 membranes, second value of cell pair mouse/rat
EXPERIMENTAL_ENDPOINT: Ki (µM)
Please reply with the bare figure in µM and do not write the unit itself.

Some solved entries appear below for comparison.
MOLECULE: O=C(Nc1ccc(SC2CNC2)cc1)c1[nH]nc(C2CC2)c1Cl [Example 35]
ASSAYED_TARGET: rat TAAR1 (Rattus norvegicus (Rat), UniProt Q923Y9)
Ki [µM]: 0.0466
--
MOLECULE: CCc1n[nH]c(C(=O)Nc2ccc(C[C@H]3NC[C@H]3F)cc2)c1C [Example 103]
ASSAYED_TARGET: rat TAAR1 (Rattus norvegicus (Rat), UniProt Q923Y9)
Ki [µM]: 1.27
--
MOLECULE: O=C(Nc1ccc(OC2CNC2)cc1F)c1cnc(C(F)(F)F)nc1 [Example 39]
ASSAYED_TARGET: rat TAAR1 (Rattus norvegicus (Rat), UniProt Q923Y9)
Ki [µM]: 0.476
--
MOLECULE: COc1ccc(NC(=O)Nc2ccc(CC3(F)CNC3)cc2)cc1 [Example 106]
ASSAYED_TARGET: rat TAAR1 (Rattus norvegicus (Rat), UniProt Q923Y9)
Ki [µM]: 0.0239

Req: State its Ki: CO[C@H]1CN[C@@H]1Cc1ccccc1 [Example 101, (2R,3S)-2-benzyl-3-methoxyazetidine]
Resp: 2.04

Req: State its Ki: COc1cc(C(=O)Nc2ccc(CC3(F)CNC3)cc2)nc(C(F)(F)F)n1 [Example 68]
Resp: 0.0071

Req: State its Ki: O=C(Nc1ccc(CC2(F)CNC2)cc1)c1ccc(Cl)cc1 [Example 52]
Resp: 0.0035

Req: State its Ki: CCn1cc(Cl)c(C(=O)Nc2ccc(OC3CNC3)cc2)n1 [Example 22]
Resp: 0.0672

Req: State its Ki: O=C(Nc1ccc(C[C@H]2CCN2)cc1)c1ccc(Cl)nc1 [Example 81]
Resp: 0.0202

###

# ASSAYED_TARGET: rat TAAR1 (Rattus norvegicus (Rat), UniProt Q923Y9)
# ASSAY_REMARKS: Radioligand binding assay on rat TAAR1
# STATED_CONDITIONS: read-out: Ki(μM) rat; rat TAAR1, HEK-293 membranes, second value of cell pair mouse/rat
# Ki per entry
Reply with the number and its unit after it.

ENTRY_SMILES: CCc1n[nH]c(C(=O)Nc2ccc(C[C@@H]3NC[C@@H]3F)cc2)c1C
RESULT: 0.0875 µM
--
ENTRY_SMILES: Cc1ncc(C(=O)Nc2ccc(OC3CNC3)cc2)cn1
RESULT: 0.633 µM
--
ENTRY_SMILES: O=C(Nc1ccc(C[C@@H]2NC[C@@H]2F)cc1)c1ccnc(C(F)(F)F)c1
RESULT: 0.0231 µM
--
ENTRY_SMILES: CC(C)(C)c1n[nH]c(C(=O)Nc2ccc(OC3CNC3)cc2)c1Cl
RESULT: 0.0145 µM

Req: State its Ki: `O=C(Nc1ccc(C=C2CNC2)cc1)Nc1cccc(Cl)c1`
Resp: 0.0021 µM

Req: State its Ki: `CO[C@H]1CN[C@H]1Cc1ccccc1`
Resp: 0.767 µM

Req: State its Ki: `CCOc1ccc(C(=O)Nc2ccc(OC3CNC3)c(F)c2)cn1`
Resp: 0.0284 µM

Req: State its Ki: `F[C@H]1CN[C@@H]1Cc1ccccc1`
Resp: 2.09 µM

Req: State its Ki: `O=C(Nc1ccc(CC2(F)CNC2)cc1)Nc1cccc(Cl)c1`
Resp: 0.0026 µM
